Catalogue of molecules with associated pIC50
target: B-Raf (Homo sapiens); test: Luciferase-coupled chemiluminescence kinase assay (ATP consumption), B-Raf; type: biochemical; conditions: read-out: bRaf IC50
Sequence (P15056 whole entry): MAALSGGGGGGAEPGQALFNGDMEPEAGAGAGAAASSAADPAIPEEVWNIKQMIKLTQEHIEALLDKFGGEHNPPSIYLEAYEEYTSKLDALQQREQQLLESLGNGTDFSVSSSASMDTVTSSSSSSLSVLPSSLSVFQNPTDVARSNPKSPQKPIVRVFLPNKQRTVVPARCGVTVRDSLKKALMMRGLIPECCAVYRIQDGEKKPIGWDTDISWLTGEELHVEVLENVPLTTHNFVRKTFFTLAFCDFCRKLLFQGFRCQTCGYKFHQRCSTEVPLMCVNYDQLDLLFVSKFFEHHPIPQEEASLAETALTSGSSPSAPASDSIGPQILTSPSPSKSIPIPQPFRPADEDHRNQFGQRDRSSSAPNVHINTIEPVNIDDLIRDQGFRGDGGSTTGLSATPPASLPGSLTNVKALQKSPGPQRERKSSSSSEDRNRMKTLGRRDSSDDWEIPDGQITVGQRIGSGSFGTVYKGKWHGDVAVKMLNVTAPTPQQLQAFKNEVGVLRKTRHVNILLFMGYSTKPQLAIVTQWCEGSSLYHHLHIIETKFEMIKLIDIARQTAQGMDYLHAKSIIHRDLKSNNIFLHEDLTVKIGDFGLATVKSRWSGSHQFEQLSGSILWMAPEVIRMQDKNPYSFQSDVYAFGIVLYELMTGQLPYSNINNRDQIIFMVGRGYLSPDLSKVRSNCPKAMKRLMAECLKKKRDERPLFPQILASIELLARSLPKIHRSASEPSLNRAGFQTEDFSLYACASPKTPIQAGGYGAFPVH
pIC50: −log10 of the molar value.

Example results:
COC(=O)Nc1nc2cc(C3(O)c4ccccc4C(=O)N3c3ccccc3OC)ccc2[nH]1 (centres unmarked) | > 7.00
O=C(Nc1nc2cc(C3(O)c4ccccc4C(=O)N3Cc3ccccc3)ccc2[nH]1)OC1CCNCC1 (centres unmarked) | > 7.00
CN(C(=O)c1ccccc1C(=O)c1ccc2c(c1)NC(=O)CO2)c1ccccc1 | ≤ 5.00
CN(C)CCOc1cccc(N2C(=O)c3ccccc3C2(O)c2ccc3c(c2)NC(=O)CO3)c1 (centres unmarked) | ≤ 5.00
O=C1COc2ccc(C3(O)c4ccccc4C(=O)N3c3cc(Cl)cc(Cl)c3)cc2N1 (centres unmarked) | 5.00 to 6.00

Prompt: Param readout= pIC50; system= B-Raf (Homo sapiens); entry= COC(=O)Nc1nc2cc(C3(O)c4ccccc4C(=O)N3C(C)c3cccc(C(F)(F)F)c3)ccc2[nH]1 (centres unmarked) ; returns value.
Response: 5.00 to 6.00

Prompt: Param readout= pIC50; system= B-Raf (Homo sapiens); entry= COC(=O)Nc1nc2cc(C3(O)c4ccccc4C(=O)N3CC3CCC3)ccc2[nH]1 (centres unmarked) ; returns value.
Response: > 7.00

Prompt: Param readout= pIC50; system= B-Raf (Homo sapiens); entry= O=C(NCc1ccccc1)Nc1nc2cc(C3(O)c4ccccc4C(=O)N3Cc3ccccc3)ccc2[nH]1 (centres unmarked) ; returns value.
Response: > 7.00

Prompt: Param readout= pIC50; system= B-Raf (Homo sapiens); entry= O=C(Nc1nc2cc(C3(O)c4ccccc4C(=O)N3Cc3ccccc3)ccc2[nH]1)OCC1CCCO1 (centres unmarked) ; returns value.
Response: > 7.00

Prompt: Param readout= pIC50; system= B-Raf (Homo sapiens); entry= COC(=O)Nc1nc2cc(C3(O)c4ccccc4C(=O)N3Cc3ccccc3Br)ccc2[nH]1 (centres unmarked) ; returns value.
Response: 6.00 to 7.00
